Target: F protein of human metapneumovirus strain JPS03-180 (type A1), on infectious virus (human metapneumovirus, strain JPS03-180 …)
Experiment: cell-based or functional assay
Threshold 0.4 µg/mL: IC90, neutralizing activity (hMPV infection of LLC-MK2 cells; GraphPad Prism 6) strictly smaller gives true (1), otherwise false (0).

State whether 0.4 µg/mL exceeds IC90, neutralizing activity (hMPV infection of LLC-MK2 cells; GraphPad Prism 6) recorded for EV046124 (antibody, human IgG1, lambda, V domains shown) VH: QVQLVQSGTELKKPGASVKVSCKASGYTFTDYSMHWLRQAPGESLEWMGWVNGGPLDTKYSPTFQDRVSFSRDVFATTAYMDLSSLGPEDTAVYYCARGWGITAYRGDAFDLWGQGTMVIVSS VL: SFVLTQPPSVSVAPGKSARITCGASNIESKSVHWYQQKPGQAPVVVVYDDDDRPSGIPERFSGSNSGNTATLIINRVEVGDEADYYCQVWDSTSDMYVFGAGTKVTVLG . true (1)

// next record EV046116 (antibody, human IgG1, kappa, V domains shown) VH: QVQLQESGPGLVKPSETLSLTCTVSGGSISRDYWSFIRQPAGKGLEWIGRIYHNGDTNYNPSLKSRVTMSQDTSKNQFFLRLRHVTAADTAVYYCAREGSAGTFGQADWGQGTLVIVYS VL: EIVMTQSPATLSVSPGERATLSCRASQSISNNLAWYQQKPGQAPRLLIYGASTRATGIPARFSGGGSGTEFTLTISSLQSEDFAVYYCQQYENWLLYTFGQGTKLEIKR false (0)

// next record EV046120 (antibody, human IgG1, lambda, V domains shown) VH: EVQLVESGGGLVKPGGSLRLSCAASGFTFSSYSMNWVRQAPGKGLEWVSSISSSSSYIYYADSLKGRFTVSRDNAKKSLYLQMNSLRAEDTAVYYCARVDYGTNSEVGRFDPWGQGTLVTVSS VL: QSVLTQPPSVSGTPGQRVTISCTGSSSNIGAGYAVHWYQQLPGTAPKLLIYDSINRPSGVPDRFSGSKSGTSASLAITGLQTEDEADYYCHSYDRSLSGSVFGGGTKLTVLG false (0)

// next record EV046147 (antibody, human IgG1, lambda, V domains shown) VH: QVQLVQSGAEVKKPGASVKVSCKASGYTFSVYGISWVRQAPGHGLEWMGWISAYNGDRGYAQKVQGRITMTTDTSASTAYMELRSLTSDDTAVYYCATTSSGVPGIYWGQGSLVTVSS VL: SYALVQPPSVSVSPGQTARITCFGPALPKKYAYWYQHKSGQAPMLVIYEDTKRPSGIPQRFSGSTSGATATLTIRGAQVEDEADYYCYSTDSSGHERVFGGGTKLTVLG false (0)

// next record EV046130 (antibody, human IgG1, lambda, V domains shown) VH: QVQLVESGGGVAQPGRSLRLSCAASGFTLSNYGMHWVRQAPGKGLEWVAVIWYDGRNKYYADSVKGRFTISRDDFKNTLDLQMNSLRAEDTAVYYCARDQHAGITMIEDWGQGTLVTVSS VL: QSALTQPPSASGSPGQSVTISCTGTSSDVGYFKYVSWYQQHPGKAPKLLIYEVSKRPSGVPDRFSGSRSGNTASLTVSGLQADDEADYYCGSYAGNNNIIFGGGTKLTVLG false (0)

// next record EV046150 (antibody, human IgG1, kappa, V domains shown) VH: RVQLVQSGAEVKKPGSSVRVSCKASGGTFSNYSISWVRQVPGQGLEWMGRIIPILPLSSYPQQFQGRVAITADKSSTTAYMELSSLRIEDTAIYYCARDALRPEGGYYYYYFDVWGTGTTVTVSS VL: EIELTQSPGTLSLSPGERATLSCRANQIIGDTSLAWYQQKPGQAPRLLIFGASSRATGIPDRFSGSGFGSDFTLTITSLEPEDFAVYYCQQYGSSPTFGQGTKVEIKR true (1)

// next record EV046113 (antibody, human IgG1, kappa, V domains shown) VH: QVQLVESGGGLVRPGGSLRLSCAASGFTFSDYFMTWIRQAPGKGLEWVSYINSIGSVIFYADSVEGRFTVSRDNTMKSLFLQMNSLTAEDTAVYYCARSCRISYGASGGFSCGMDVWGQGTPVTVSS VL: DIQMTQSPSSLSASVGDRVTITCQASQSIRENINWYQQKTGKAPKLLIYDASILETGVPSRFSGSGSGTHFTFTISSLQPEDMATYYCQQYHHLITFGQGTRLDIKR false (0)

// next record EV046142 (antibody, human IgG1, lambda, V domains shown) VH: QVQLVQSGAEVKKPGSSVRVSCKASGGTFSTYGINWVRQARGQGLEWMGTVIPTFEKTYYAQGFQGRVTIAADGSKNTVYMELRRLTSEDSAIYFCTRFFTPYCSGGSCYLDLWGPGTLVTVSS VL: QSVLTQPPSVSGAPGQSVTISCAGSSSNIGAGYDVHWYQHLPGTAPRLLIYSNTNRPSGVPDRFSGSKSGASASLAITGLQAEDEADYYCQSYDSGVVFGGGTKLTVLR false (0)

// next record EV046141 (antibody, human IgG1, lambda, V domains shown) VH: QVQLVQSGAEVKKPGASVKVSCKASGYTFADYYIHWLRQAPGQGLEWLGRINPSNSRTTYPQKFQGRVTVTRDTSTSTVYMELSSLRSADTAVYYCARDGLRMGYYYMDVWGKGTTVTVSS VL: QSVLTQPPSVSGAPGQRVTISCTGSSSNIGAGYDVHWYQQIPGTAPKLLIFGNYNRPSGVPDRFSASKSGTSASLAITGLQAEDEAHYYCQSYDTTLDGAVFGGGTKLTVLG false (0)

// next record EV046135 (antibody, human IgG1, lambda, V domains shown) VH: QEQLVESGGDLVKPGGSLRITCAASGFTLSGYALVWVRQAPGRGLEWIADITASSTYINYAASVKGRFTISRDNAQSSLFLQMSSLRADDTGVYFCARLPHLPGFFDLWGRGTLVSVSS VL: QSVLTQPPSVSGAPGQRVTISCTGNSSNIGAGYDVNWYQHLPGTAPKLLISVNTNRPSGVPDRFSGSMSGTSASLAITGLQAEDEADYYCQSYDRRLSGYVFGTGTKVTVLG false (0)
